- Tested on: Enterococcus faecalis (EFA)
- Assay Notes: MIC, two-fold agar dilution (CLSI), clinical isolates
- Format: cell-based
- Experimental Parameters: clinical isolate EFA 15-3
Measurement Name: Anti-bacterial activity (MIC), strain EFA 15-3

What does the record list as Anti-bacterial activity (MIC), strain EFA 15-3 for CCCC[C@H](CC(=O)NO)C(=O)N1CC2(CC2)C[C@H]1C(=O)Nc1cc(C(C)(C)C)on1 [Example 55] ?
> 32 µg/mL

What does the record list as Anti-bacterial activity (MIC), strain EFA 15-3 for CCCC[C@H](CC(=O)NO)C(=O)N1CC2(CC2)C[C@H]1C(=O)Nc1ccncn1 [Example 45] ?
> 32 µg/mL

What does the record list as Anti-bacterial activity (MIC), strain EFA 15-3 for O=C(C[C@@H](CC1CCCC1)C(=O)N1CC2(CC2)C[C@H]1C(=O)Nc1ccc(N2CCOCC2)cc1)NO [Example 61] ?
> 32 µg/mL

What does the record list as Anti-bacterial activity (MIC), strain EFA 15-3 for CCCC[C@H](CC(=O)NO)C(=O)N1CC2(CC2)C[C@H]1C(=O)Nc1ccc(F)cn1 [Example 46] ?
> 32 µg/mL

What does the record list as Anti-bacterial activity (MIC), strain EFA 15-3 for CCCC[C@H](CC(=O)NO)C(=O)N1CC2(CC2)C[C@H]1C(=O)Nc1cc(C)on1 [Example 56] ?
16 µg/mL

I have 3 molecules here; please give me Anti-bacterial activity (MIC), strain EFA 15-3 for each one.
1. O=CN(O)C[C@@H](CC1CCCC1)C(=O)N1CC2(CC2)C[C@H]1c1nc2ccccc2[nH]1 [Example 42]
2. CCCC[C@H](CC(=O)NO)C(=O)N1CC2(CC2)C[C@H]1C(=O)Nc1cnn(CCN(C)C)c1 [Example 52]
3. CCCC[C@H](CC(=O)NO)C(=O)N1CC2(CC2)C[C@H]1C(=O)Nc1ccno1 [Example 54]

4 µg/mL
> 32 µg/mL
> 32 µg/mL

* * *

- Test system: MGC-803 gastric cancer cell line
- Assay Notes: CCK-8 proliferation inhibition
- Format: cell-based
- Experimental Parameters: Homo sapiens, MGC-803, 72 h, concentration of 30 μM
Exercise: state measured inhibition at 30 µM for each of the compounds provided.

// known answers, use as guide
What does the record list as inhibition at 30 µM for `O=C(C[C@@H](CC1CCCC1)C(=O)N1CC2(CC2)C[C@H]1C(=O)Nc1ccc(N2CCOCC2)cc1)NO` ?
31%

What does the record list as inhibition at 30 µM for `O=C(C[C@@H](CC1CCCC1)C(=O)N1CC2(CC2)C[C@H]1C(=O)Nc1nccs1)NO` ?
> 50%

What does the record list as inhibition at 30 µM for `Cc1cc(NC(=O)[C@@H]2CC3(CC3)CN2C(=O)[C@@H](CC(=O)NO)CC2CCCC2)no1` ?
34%

What does the record list as inhibition at 30 µM for `O=CN(O)C[C@@H](CC1CCCC1)C(=O)N1CC2(CC2)C[C@H]1C(=O)Nc1ncco1` ?
46%

I have 3 compounds here; please give me inhibition at 30 µM for each one.
1. O=CN(O)C[C@@H](CC1CCCC1)C(=O)N1CC2(CC2)C[C@H]1C(=O)Nc1nccs1 (stereo in doubt)
2. CCCC[C@H](CC(=O)NO)C(=O)N1CC2(CCCC2)C[C@H]1C(=O)Nc1ncc(C)s1
3. O=CN(O)C[C@@H](CC1CCCC1)C(=O)N1CC2(CC2)C[C@H]1C(=O)NC1CC1

1. > 50%
2. > 50%
3. 14%

I have 2 compounds here; please give me inhibition at 30 µM for each one.
1. O=C(C[C@@H](CC1CCCC1)C(=O)N1CC2(CC2)C[C@H]1C(=O)Nc1nc(C(F)(F)F)cs1)NO
2. O=CN(O)C[C@@H](CC1CCCC1)C(=O)N1CC2(CC2)C[C@H]1C(=O)Nc1ccc(N2CCOCC2)cc1

1. > 50%
2. 27%

* * *

- System: Streptococcus pneoumoniae (SPN)
- Assay Notes: MIC, two-fold agar dilution (CLSI), clinical isolates
- Assay type: cell-based
- Experimental Parameters: strain SPN 16-2
Please use TRUE for MIC (anti-bacterial activity) under 4 µg/mL and FALSE for everything else, ties included.

is_below(MIC (anti-bacterial activity), 4 µg/mL) for O=CN(O)C[C@@H](CC1CCCC1)C(=O)N1CC2(CC2)C[C@H]1C(=O)Nc1ncco1 [Example 36] ?
TRUE

is_below(MIC (anti-bacterial activity), 4 µg/mL) for Cc1cc(NC(=O)[C@@H]2CC3(CC3)CN2C(=O)[C@H](CC2CCCC2)CN(O)C=O)no1 [Example 39] ?
TRUE

is_below(MIC (anti-bacterial activity), 4 µg/mL) for CCCC[C@H](CN(O)C=O)C(=O)N1CC2(CC2)C[C@H]1C(=O)Nc1nncs1 [Example 23] ?
FALSE

Next:
is_below(MIC (anti-bacterial activity), 4 µg/mL) for COC(=O)c1sccc1NC(=O)[C@@H]1CC2(CC2)CN1C(=O)[C@H](CC1CCCC1)CN(O)C=O [Example 34] ?
TRUE

* * *

Exercise: state measured Anti-bacterial activity (MIC), strain ECO+ 15-3 for each of the compounds provided.
- Test system: Escherichia coli (including ESBLs, non-ESBLs)
- Assay Notes: MIC, two-fold agar dilution (CLSI), clinical isolates
- Type: cell-based
- Experimental Parameters: clinical isolate ECO+ 15-3

// known answers, use as guide
What does the record list as Anti-bacterial activity (MIC), strain ECO+ 15-3 for `CCCC[C@H](CC(=O)NO)C(=O)N1CC2(CC2)C[C@H]1C(=O)Nc1ccno1` ?
> 32 µg/mL

What does the record list as Anti-bacterial activity (MIC), strain ECO+ 15-3 for `O=C(C[C@@H](CC1CCCC1)C(=O)N1CC2(CC2)C[C@H]1C(=O)Nc1nncs1)NO` ?
> 32 µg/mL

Please examine the following record next.
What does the record list as Anti-bacterial activity (MIC), strain ECO+ 15-3 for `CCCC[C@H](CC(=O)NO)C(=O)N1CC2(CC2)C[C@H]1C(=O)Nc1ccncn1` ?
> 32 µg/mL

* * *

- Test system: Enterococcus faecalis (EFA)
- Assay Notes: MIC, two-fold agar dilution (CLSI), clinical isolates
- Assay type: cell-based
- Experimental Parameters: strain EFA 15-2
Exercise: state measured Anti-bacterial activity (MIC) for each of the compounds provided.

What does the record list as Anti-bacterial activity (MIC) for `CCCC[C@H](CC(=O)NO)C(=O)N1CC2(CCCC2)C[C@H]1C(=O)Nc1ccc(F)cn1` ?
> 32 µg/mL

What does the record list as Anti-bacterial activity (MIC) for `O=C(C[C@@H](CC1CCCC1)C(=O)N1CC2(CC2)C[C@H]1C(=O)NC1CC1)NO` ?
> 32 µg/mL

What does the record list as Anti-bacterial activity (MIC) for `CCCC[C@H](CC(=O)NO)C(=O)N1CC2(CCCC2)C[C@H]1C(=O)Nc1cc(C)on1` ?
> 16 µg/mL

I have 2 compounds here; please give me Anti-bacterial activity (MIC) for each one.
1. O=C(C[C@@H](CC1CCCC1)C(=O)N1CC2(CC2)C[C@H]1c1nc2ccccc2[nH]1)NO
2. O=C(C[C@@H](CC1CCCC1)C(=O)N1CC2(CC2)C[C@H]1C(=O)Nc1ncco1)NO

1. > 32 µg/mL
2. > 32 µg/mL

What does the record list as Anti-bacterial activity (MIC) for C[C@H]1COc2c(N3CCN(C)CC3)c(F)cc3c(=O)c(C(=O)O)cn1c23 [levofloxacin, reference compound] ?
> 128 µg/mL

* * *

- Tested on: methicillin-resistant Staphylococcus aureus (MRSA)
- Assay Notes: MIC, two-fold agar dilution (CLSI), clinical isolates
- Type: cell-based
- Experimental Parameters: strain MRSA 14-2
- Excerpt: 1. The invention adopts the two-fold agar dilution method recommended by the operating procedure of antimicrobial susceptibility testing set by American Clinical and Laboratory Standards Institute (CLSI) to determine the Minimum Inhibitory Concentration (MIC) of the test samples against the tested strains.
Exercise: state measured MIC (anti-bacterial activity) for each of the molecules provided.
One number for each entry, in µg/mL.

What does the record list as MIC (anti-bacterial activity) for `CCCC[C@H](CN(O)C=O)C(=O)N1CC2(CC2)C[C@H]1c1nnc2ccccn12` ?
1

What does the record list as MIC (anti-bacterial activity) for `CCCC[C@H](CN(O)C=O)C(=O)N1CC2(CC2)C[C@H]1C(=O)Nc1cccc(Nc2ncccn2)c1` ?
0.25

What does the record list as MIC (anti-bacterial activity) for `CCCC[C@H](CN(O)C=O)C(=O)N1CC2(CC2)C[C@H]1C(=O)Nc1cc(C(C)(C)C)on1` ?
0.06

I have 2 molecules here; please give me MIC (anti-bacterial activity) for each one.
1. CCCC[C@H](CN(O)C=O)C(=O)N1CC2(CC2)C[C@H]1C(=O)Nc1ncccc1F
2. CCCC[C@H](CN(O)C=O)C(=O)N1CC2(CC2)C[C@H]1C(=O)Nc1ccc(C)c(Nc2nccc(-c3cccnc3)n2)c1

0.5
0.015
